experimental-system: delta-opioid receptor (DOR) (Rattus norvegicus)
Construct: Rat cortices were homogenized using 50 mM Tris, pH 7.4, 10 mM MgCl2-6H2O, 200 µM PMSF; from tissue; host or cells: rat cortex membranes
Sequence (P33533 whole entry): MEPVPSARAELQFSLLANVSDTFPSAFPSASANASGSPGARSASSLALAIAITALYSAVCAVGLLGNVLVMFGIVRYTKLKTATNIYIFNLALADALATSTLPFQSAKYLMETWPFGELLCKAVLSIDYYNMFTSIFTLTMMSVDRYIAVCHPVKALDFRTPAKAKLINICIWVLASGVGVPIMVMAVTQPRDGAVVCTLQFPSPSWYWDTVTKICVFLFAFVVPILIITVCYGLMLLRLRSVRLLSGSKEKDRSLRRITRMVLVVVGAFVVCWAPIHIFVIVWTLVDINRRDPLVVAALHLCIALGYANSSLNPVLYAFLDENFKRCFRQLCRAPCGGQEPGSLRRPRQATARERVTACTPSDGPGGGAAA
procedure-summary: DOR radioligand competition binding assay ([3H]-DPDPE)
experimental-conditions: Delta screening results, mean of two experiments; read-out: Ki
recorded-metric: pKi
Lab note: report pKi as minus log10 of the concentration in molar units, number only.

Some entries whose results are on file:
{"compound-smiles": "C[C@H]1CNC(=N)N1C[C@H](Cc1ccccc1)N1C[C@H](Cc2ccc(O)cc2)NC1=N", "value-reported": 5.18}
{"compound-smiles": "Cc1cc(O)cc(C)c1C[C@H]1CN([C@@H](Cc2ccc(O)cc2)CN2C(=N)NC[C@@H]2C)C(=N)N1", "value-reported": 5.85}
{"compound-smiles": "Cc1cc(O)cc(C)c1C[C@H]1CN([C@@H](CC(C)C)CN2C(=N)NC[C@@H]2Cc2c(C)cc(O)cc2C)C(=N)N1", "value-reported": 6.09}

delta-opioid receptor (DOR) (Rattus norvegicus) data for `N=C1NC[C@H](Cc2ccccc2)N1C[C@H](Cc1ccc(O)cc1)N1C[C@H](Cc2ccccc2)NC1=N` ; its pKi: 5.03

delta-opioid receptor (DOR) (Rattus norvegicus) data for `CC(C)C[C@H]1CN([C@@H](Cc2ccc(O)cc2)CN2C(=N)NC[C@@H]2C)C(=N)N1` ; its pKi: 5.42

delta-opioid receptor (DOR) (Rattus norvegicus) data for `Cc1cc(O)cc(C)c1C[C@@H](CN1C(=N)NC[C@@H]1C)N1C[C@H](Cc2ccc(O)cc2)NC1=N` ; its pKi: 6.16

delta-opioid receptor (DOR) (Rattus norvegicus) data for `Cc1cc(O)cc(C)c1C[C@@H](CN1C(=N)NC[C@@H]1C)N1C[C@H](CC(C)C)NC1=N` ; its pKi: 5.96
